All values here come from ChEMBL document CHEMBL4831499.

target_desc: Galectin-9 (Homo sapiens)
Sequence (O00182 whole entry, the tested form may be a part): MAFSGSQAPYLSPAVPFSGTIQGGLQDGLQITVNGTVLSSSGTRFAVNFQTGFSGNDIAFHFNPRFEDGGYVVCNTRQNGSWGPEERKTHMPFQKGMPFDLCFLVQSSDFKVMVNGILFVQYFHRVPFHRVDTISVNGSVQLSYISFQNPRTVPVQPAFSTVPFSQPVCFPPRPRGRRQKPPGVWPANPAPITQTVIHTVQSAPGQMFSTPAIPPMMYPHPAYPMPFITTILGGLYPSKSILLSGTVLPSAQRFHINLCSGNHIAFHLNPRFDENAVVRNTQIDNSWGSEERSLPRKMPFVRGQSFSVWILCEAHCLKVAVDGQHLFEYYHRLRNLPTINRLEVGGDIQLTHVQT
test_method_notes: Binding affinity to human galactin-9 C terminal domain assessed as dissociation constant by competitive fluorescence polarization assay
assay_metric: pKd
Remember the convention: pKd equals -log10 of concentration in molar.

Asked: For O=C(O)c1ccc2nc(CO[C@@H]3[C@@H](O)[C@@H](Sc4ccc(Cl)c(Cl)c4)O[C@H](CO)[C@@H]3O)[nH]c2c1 , what is its reported pKd?
Given back: 4.74

Asked: How about Cn1c(CO[C@@H]2[C@@H](O)[C@@H](Sc3ccc(Cl)c(Cl)c3)O[C@H](CO)[C@@H]2O)nc2ccc(C(=O)O)cc21 ?
Given back: 4.35

###

target_desc: Galectin-3 (Homo sapiens, UniProt P17931)
Sequence (P17931 whole entry): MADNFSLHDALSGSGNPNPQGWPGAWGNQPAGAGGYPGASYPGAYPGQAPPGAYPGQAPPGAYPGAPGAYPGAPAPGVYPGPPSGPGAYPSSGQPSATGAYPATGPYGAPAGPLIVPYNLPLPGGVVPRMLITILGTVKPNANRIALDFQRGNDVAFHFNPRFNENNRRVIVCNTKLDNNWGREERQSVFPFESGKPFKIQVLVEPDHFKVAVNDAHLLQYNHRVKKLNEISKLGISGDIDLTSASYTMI
test_method_notes: Binding affinity to galectin-3 (unknown origin)
assay_metric: pKd
Remember the convention: pKd equals -log10 of concentration in molar.

Asked: For CO[C@@H]1O[C@H](CO)[C@H](O)[C@H](OCc2ccc3ccc(C(=O)O)cc3n2)[C@H]1O , what is its reported pKd?
Given back: 3.42

Asked: How about CO[C@@H]1O[C@H](CO)[C@H](O)[C@H](OCc2ccc3ccccc3n2)[C@H]1O ?
Given back: 3.21

Asked: How about O=C(O)c1ccc2ccc(CO[C@@H]3[C@@H](O)[C@@H](Sc4ccc(Cl)c(Cl)c4)O[C@H](CO)[C@@H]3O)nc2c1 ?
Given back: 5.92

###

I'd appreciate it if you could supply Kd values for the items below.
target_desc: Galectin-3 (Homo sapiens)
test_method_notes: Binding affinity to human galactin-3 assessed as dissociation constant by competitive fluorescence polarization assay
Only the number, expressed in µM, is required.

Asked: Field: Kd (Galectin-3 (Homo sapiens)). Entry: Cc1ccc(S[C@@H]2O[C@H](CO)[C@H](O)[C@H](OCc3cn(-c4cccc(C(=O)O)c4)nn3)[C@H]2O)cc1
Given back: 250

Asked: How about COC(=O)c1cccc(-n2cc(CO[C@H]3[C@@H](O)[C@@H](CO)O[C@@H](OC)[C@@H]3O)nn2)c1 ?
Given back: 510

Asked: How about Cc1ccc(S[C@@H]2O[C@H](CO)[C@H](O)[C@H](OCc3cn(-c4ccc(C(=O)O)cc4)nn3)[C@H]2O)cc1 ?
Given back: 230

Asked: How about COC(=O)c1ccccc1-n1cc(CO[C@H]2[C@@H](O)[C@@H](CO)O[C@@H](OC)[C@@H]2O)nn1 ?
Given back: 330

Asked: How about CO[C@@H]1O[C@H](CO)[C@H](O)[C@H](OCc2nc3ccccc3[nH]2)[C@H]1O ?
Given back: 1500

Asked: How about Cc1ccc(S[C@@H]2O[C@H](CO)[C@H](O)[C@H](OCc3cn(-c4ccccc4C(=O)O)nn3)[C@H]2O)cc1 ?
Given back: 690

Asked: How about COC(=O)c1ccc(-n2cc(CO[C@H]3[C@@H](O)[C@@H](CO)O[C@@H](OC)[C@@H]3O)nn2)cc1 ?
Given back: 700

Asked: How about CO[C@@H]1O[C@H](CO)[C@H](O)[C@H](OCc2nc3ccccc3n2C)[C@H]1O ?
Given back: 1600

###

I'd appreciate it if you could supply Kd values for the items below.
target_desc: UniProt:P17931
test_method_notes: Binding affinity to human galactin-3 assessed as dissociation constant by competitive fluorescence polarization assay
Only the number, expressed in µM, is required.

Asked: Field: Kd (UniProt:P17931). Entry: CO[C@@H]1O[C@H](CO)[C@H](O)[C@H](OCc2nc3ccccc3o2)[C@H]1O
Given back: 620

Asked: How about CO[C@@H]1O[C@H](CO)[C@H](O)[C@H](OCc2nc3ccc(C(=O)O)cc3[nH]2)[C@H]1O ?
Given back: 590

Asked: How about CO[C@@H]1O[C@H](CO)[C@H](O)[C@H](OCc2nc3cc(C(=O)O)ccc3n2C)[C@H]1O ?
Given back: 1100

Asked: How about COC(=O)c1ccc2nc(CO[C@H]3[C@@H](O)[C@@H](CO)O[C@@H](OC)[C@@H]3O)[nH]c2c1 ?
Given back: 1600

Asked: How about CO[C@@H]1O[C@H](CO)[C@H](O)[C@H](OCc2cn(-c3ccc(C(=O)O)cc3)nn2)[C@H]1O ?
Given back: 190

Asked: How about COC(=O)c1cccc(-n2cc(CO[C@H]3[C@@H](O)[C@@H](CO)O[C@@H](Sc4ccc(C)cc4)[C@@H]3O)nn2)c1 ?
Given back: 490

Asked: How about CO[C@@H]1O[C@H](CO)[C@H](O)[C@H](OCc2nc3ccc(C(=O)O)cc3n2C)[C@H]1O ?
Given back: 1400
